- test target: Cholecystokinin receptor type A (Rattus norvegicus) (UniProt P30551)
- Sequence (whole entry): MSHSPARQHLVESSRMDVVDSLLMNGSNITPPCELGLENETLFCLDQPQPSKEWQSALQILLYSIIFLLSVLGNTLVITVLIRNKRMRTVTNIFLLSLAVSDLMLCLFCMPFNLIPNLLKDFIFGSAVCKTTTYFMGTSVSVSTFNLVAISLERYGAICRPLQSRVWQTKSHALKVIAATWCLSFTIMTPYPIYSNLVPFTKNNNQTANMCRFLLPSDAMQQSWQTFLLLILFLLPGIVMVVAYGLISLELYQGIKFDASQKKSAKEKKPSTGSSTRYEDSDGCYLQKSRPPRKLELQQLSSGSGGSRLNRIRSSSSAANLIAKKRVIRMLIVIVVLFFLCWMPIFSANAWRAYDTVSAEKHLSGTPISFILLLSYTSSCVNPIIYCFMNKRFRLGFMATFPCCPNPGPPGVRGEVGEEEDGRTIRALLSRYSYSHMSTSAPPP
- assay protocol: Displacement of [125I]-CCK8 from CCK1 receptor in rat pancreatic acinar cells 10 uM
measured metric: inhibition

# count of solved cases: 2
CC(C)(C)C(=O)Nc1ccccc1C(=O)NC(Cc1ccccc1)C(=O)O (racemic)	< 20%
O=C(Nc1ccccc1C(=O)NC(Cc1ccccc1)C(=O)O)c1cc2cc(F)cc(F)c2[nH]1 (racemic)	59%

Turning now to a further record.
Input: State its inhibition on Cholecystokinin receptor type A (Rattus norvegicus) (UniProt P30551): O=C(Cc1c[nH]c2ccccc12)Nc1ccccc1C(=O)NC(Cc1ccccc1)C(=O)O (racemic)
Output: < 20%

###

- test target: Cholecystokinin receptor type A (Rattus norvegicus)
- Sequence (whole entry): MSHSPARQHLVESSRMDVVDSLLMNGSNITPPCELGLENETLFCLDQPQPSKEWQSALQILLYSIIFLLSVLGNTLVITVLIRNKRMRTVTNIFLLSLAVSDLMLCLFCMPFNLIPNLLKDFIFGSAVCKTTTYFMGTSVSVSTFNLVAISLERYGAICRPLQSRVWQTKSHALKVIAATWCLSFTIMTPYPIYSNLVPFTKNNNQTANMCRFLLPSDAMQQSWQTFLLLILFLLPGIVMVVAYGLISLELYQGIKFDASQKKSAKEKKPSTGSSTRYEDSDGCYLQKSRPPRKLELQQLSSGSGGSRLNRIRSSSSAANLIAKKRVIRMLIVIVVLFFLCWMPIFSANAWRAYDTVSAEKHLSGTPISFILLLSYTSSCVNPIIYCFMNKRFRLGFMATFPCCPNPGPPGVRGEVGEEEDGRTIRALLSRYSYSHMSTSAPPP
- assay protocol: Displacement of [125I]-CCK8 from CCK1 receptor in rat pancreatic acinar cells at 3 uM
Please go through the items and note down their inhibition.

# count of solved cases: 2
O=C(Nc1ccccc1C(=O)NC(Cc1ccccc1)C(=O)O)c1ccc[nH]1 (racemic)	< 20%
O=C(Nc1ccccc1C(=O)NC(Cc1ccccc1)C(=O)O)c1ccco1 (racemic)	24%

Kindly give each listed record's inhibition.
1. COc1ccc2[nH]c(C(=O)Nc3ccccc3C(=O)NC(Cc3ccccc3)C(=O)O)cc2c1 (racemic)
2. O=C(/C=C/c1ccccc1[N+](=O)[O-])Nc1ccccc1C(=O)NC(Cc1ccccc1)C(=O)O (racemic)
3. O=C(NC(Cc1ccccc1)C(=O)O)c1ccccc1NC(=O)c1ccnc2ccccc12 (racemic)
4. O=C(Nc1ccccc1C(=O)NC(Cc1ccccc1)C(=O)O)c1cccnc1 (racemic)
5. O=C(Nc1ccccc1C(=O)NC(Cc1ccccc1)C(=O)O)c1ccccn1 (racemic)
6. O=C(Nc1ccccc1C(=O)NC(Cc1ccccc1)C(=O)O)c1cnccn1 (racemic)
7. Cn1cccc1C(=O)Nc1ccccc1C(=O)NC(Cc1ccccc1)C(=O)O (racemic)
8. O=C(Nc1ccccc1C(=O)NC(Cc1ccccc1)C(=O)O)c1ccncc1 (racemic)

Output:
["42%", "< 20%", "< 20%", "< 20%", "< 20%", "< 20%", "21%", "< 20%"]
